Source of measurements: ChEMBL document CHEMBL3244017

Test system: BSC-1
Assay: Inhibition of Herpes simplex virus 1 HF DNA polymerase-mediated DNA synthesis in African green monkey BSC1 cell nucleus after 60 mins by [3H]-TTP incorporation assay relative to control
Format: cell-based
Conditions: Human alphaherpesvirus 1
Active and inactive are the calls of the source. The rule behind the calls is not given here.
The categories you may choose from are active, inactive

Please review the following examples before continuing.
Cn1cc(NC(=O)c2cc(NC(=O)c3cc([N+](=O)[O-])cn3C)cn2C)cc1C(=O)Nc1cccc(C(=N)N)c1 ... inactive
Cn1cc(NC(=O)c2cc([N+](=O)[O-])cn2C)cc1C(=O)Nc1cc(C(=O)Nc2ccccc2C(=N)N)n(C)c1 ... inactive

Q: I'd appreciate the recorded outcome for `Cn1cc(NC(=O)c2cc(NC(=O)c3cc([N+](=O)[O-])cn3C)cn2C)cc1C(=O)NCCC(=N)N` from this test.
A: active

Q: I'd appreciate the recorded outcome for CC(CC(=N)N)NC(=O)c1cc(NC(=O)c2cc(NC(=O)c3cc([N+](=O)[O-])cn3C)cn2C)cn1C (stereo unspecified) from this test.
A: active

Q: I'd appreciate the recorded outcome for `Cn1cc(NC(=O)c2cc(NC(=O)c3cc([N+](=O)[O-])cn3C)cn2C)cc1C(=O)NCC(=N)N` from this test.
A: inactive

Q: I'd appreciate the recorded outcome for `Cn1cc(NC(=O)c2cc(NC(=O)c3cc([N+](=O)[O-])cn3C)cn2C)cc1C(=O)Nc1ccc(C(=N)N)cc1` from this test.
A: inactive
